- target: T1, human beta CGRP (SEQ ID NO: 81) (human, not fully specified)
- T1 construct: also called human βCGRP; hβCGRP
- T1 peptide: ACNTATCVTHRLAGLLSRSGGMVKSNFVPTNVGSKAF
- test_name: SPR, 37 C, mutein captured, CGRP analyte

[
  {
    "binder": "lipocalin mutein SEQ ID NO: 24 (designed binder, biotinylated by NHS chemistry for capture in SPR) QDSTSDLIPAPPLSKVPLQQNFQDNQFHGKWYVVGWAGNTLLREDKDPIKMQAKIYELKEDRSYNVTWVYFAEKKCNYHIETFVPGSQPGEFTLGTIKSYPGETPILVRVVSTNYNQHAMVFFKGVNQNREIFEIILYGRTKELTNELKENFIRFSKSLGLPENHIVFPVPIDQCIDGSAWSHPQFEK",
    "kon / M⁻¹ s⁻¹": "2.52e+06"
  },
  {
    "binder": "lipocalin mutein SEQ ID NO: 19 (designed binder, biotinylated by NHS chemistry for capture in SPR) QDSTSDLIPAPPLSKVPLQQNFQDNQFHGKWYVVGRAGNDTLREDKDPEKMEATIYELKEDKSYNVTDVGLVQKKCMYVIHTFVPGSQPGEFTLGNIKSYPGVTSALVRVVSTNYNQHAMVFVKLVKQSRELFEITLYGRTKELTSELKENFIRFSKSLGLPENHIVFPVPIDQCIDGSAWSHPQFEK",
    "kon / M⁻¹ s⁻¹": "4.56e+06"
  },
  {
    "binder": "lipocalin mutein SEQ ID NO: 13 (designed binder, biotinylated by NHS chemistry for capture in SPR) QDSTSDLIPAPPLSKVPLQQNFQDNQFHGKWYVVGRAGNEELREDKDPQKMEATIYELKEDKSYNVTDVGFSEKKCIYVIHTFVPGSQPGEFTLGNIKSYPGVTSALVRVVSTNYNQHAMVFFKVVKQNRELFEITLYGRTKELTSELKENFIRFSKSLGLPENHIVFPVPIDQCIDGSAWSHPQFEK",
    "kon / M⁻¹ s⁻¹": "1.18e+07"
  },
  {
    "binder": "lipocalin mutein SEQ ID NO: 16 (designed binder, biotinylated by NHS chemistry for capture in SPR) QDSTSDLIPAPPLSKVPLQQNFQDNQFHGKWYVVGRAGNDELREDKDPEKMEATIYELKEDKSYNVTDVGFVQKKCMYVIHTFVPGSQPGEFTLGNIKSYPGVTSGLVRVVSTNYNQHAMVFFKVVRQNRELFEITLYGRTKELTSELKENFIRFSKSLGLPENHIVFPVPIDQCIDGSAWSHPQFEK",
    "kon / M⁻¹ s⁻¹": "1.01e+07"
  },
  {
    "binder": "lipocalin mutein SEQ ID NO: 11 (designed binder, biotinylated by NHS chemistry for capture in SPR) QDSTSDLIPAPPLSKVPLQQNFQDNQFHGKWYVVGWAGNTLLREDKDPIKMQAIIYELKEDRSYNVTWVYFSEKKCNYHIETFVPGSQPGEFTLGTIKSYPGETPILVRVVSTNYNQHAMVFFKGVNQNREIFEIILYGRTKELTNELKENFIRFSKSLGLPENHIVFPVPIDQCIDGSAWSHPQFEK",
    "kon / M⁻¹ s⁻¹": "7.91e+06"
  },
  {
    "binder": "lipocalin mutein SEQ ID NO: 28 (designed binder, biotinylated by NHS chemistry for capture in SPR) QDSTSDLIPAPPLSKVPLQQNFQDNQFHGKWYVVGWAGNTLLREDKDPIKMQAIIYELKEDRSYNVTWVYFSEKKCNYHIETFVPGSQPGEFTLGTIKSYPGETPILVRVMSTNYNQHAMVFFKGVNQNREIFEIILYGRTKELTNELKENFIRFSKSLGLPENHIVFPVPIDQCIDGSAWSHPQFEK",
    "kon / M⁻¹ s⁻¹": "2.52e+06"
  },
  {
    "binder": "lipocalin mutein SEQ ID NO: 25 (designed binder, biotinylated by NHS chemistry for capture in SPR) QDSTSDLIPAPPLSKVPLQQNFQDNQFHGKWYVVGWAGNTLLREDKDPIKMQAKIYELKEDRSYNVTWVYFADKKCNYHIETFVPGSQPGEFTLGTIKSYPGETPILVRVVSTNYNQHAMVFFKGVNQNREIFEIILYGRTKELTNELKENFIRFSKSLGLPENHIVFPVPIDQCIDGSAWSHPQFEK",
    "kon / M⁻¹ s⁻¹": "2.02e+06"
  },
  {
    "binder": "lipocalin mutein SEQ ID NO: 26 (designed binder, biotinylated by NHS chemistry for capture in SPR) QDSTSDLIPAPPLSKVPLQQNFQDNQFHGKWYVVGWAGNTLLREDKDPIKMQAKIYELKEDRSYNVTWVYFADKKCRYHIETFVPGSQPGEFTLGTIKSHPGETPILVRVVSTNYNQHAMVFFKGVNQNREIFEIILYGRTKELTNELKENFIRFSKSLGLPENHIVFPVPIDQCIDGSAWSHPQFEK",
    "kon / M⁻¹ s⁻¹": "2.44e+06"
  },
  {
    "binder": "lipocalin mutein SEQ ID NO: 7 (designed binder, biotinylated by NHS chemistry for capture in SPR) QDSTSDLIPAPPLSKVPLQQNFQDNQFHGKWYVVGWAGNTLLREDKDPIKMQATIYELKEDKSYNVTWVYFSEKRCNYHIETSVPGSQPGEFTLGTIKSYPGETSILVRVVSTNYNQHAMVFFKGVSQNREIFEITLYGRTKELTSELKENFIRFSKSLGLPENHIVFPVPIDQCIDGSAWSHPQFEK",
    "kon / M⁻¹ s⁻¹": "5.21e+06"
  },
  {
    "binder": "lipocalin mutein SEQ ID NO: 8 (designed binder, biotinylated by NHS chemistry for capture in SPR) QDSTSDLIPAPPLSKVPLQQNFQDNQFHGKWYVVGWAGNTLRREDKNPTKMQATIYELKEDKSYNVTWVYFSEKKCNYHIETSVPGSQPGEFTLGTIKSYPGETSILVRVVSTNYNQHAMVFFKGVSQNREIFEITLYGRTKELTSELKENFIRFSKSLGLPENHIVFPVPIDQCIDGSAWSHPQFEK",
    "kon / M⁻¹ s⁻¹": "3.7e+06"
  },
  {
    "binder": "lipocalin mutein SEQ ID NO: 12 (designed binder, biotinylated by NHS chemistry for capture in SPR) QDSTSDLIPAPPLSKVPLQQNFQDNQFHGKWYVVGWAGNTLLREDKDPPKMQATIYELKEDRSYNVTWVYFSEKKCNYHIETSVPGSQPGEFTLGTIQSHPGETPILVRVVSTNYNQHAMVFFKGMGQNREIFEITLYGRTKELTSELKENFIRFSKSLGLPENHIVFPVPIDQCIDGSAWSHPQFEK",
    "kon / M⁻¹ s⁻¹": "1.1e+06"
  }
]

Data credit: patent US20190338002A1
